src = the supplement of paper PMC10724198

Item-by-item account of protein stability index
Tested on: Saccharomyces cerevisiae
ASSAY PROTOCOL: protein stability index of tFT-peptide fusion (C-terminal peptide) (PSI (0-1 scale)); higher = more stable (slower turnover)
MEASUREMENT CONDITIONS: genetic background: das1 deletion; temperature: 37 C

# ITEM SEQUENCE, protein stability index
rows = [
    ("RGGWVVVLGCVG", 0.642),
    ("LGVLVVCFNATY", 0.421),
    ("GYVVYRRYILIR", 0.131),
    ("FSALAPTPLLPL", 0.739),
    ("RGGPPPCPLLAA", 0.688),
    ("SGPCSPRNLRRL", 0.736),
    ("SRLLGVKVSLVC", 0.581),
    ("GRLRLGVLCGGV", 0.655),
    ("YFRKDYRKMAQH", 0.743),
    ("PYLSAPLVATLS", 0.474),
    ("LWRRSLLLLRCC", 0.244),
    ("FFALFLPLACFC", 0.49),
    ("GYLVFTLRWLRG", 0.507),
    ("PPSPPPPPPSPF", 0.738),
    ("GFFFYFVLFGLS", 0.473),
    ("VLFSVWFFLVLV", 0.134),
    ("LIPFPGFFILLT", 0.37),
    ("FVICGMLVHWMV", 0.582),
    ("WLGCVLIGWHVL", 0.481),
    ("FCVCLAVTCCGG", 0.477),
    ("FFSRSLGAGVAA", 0.715),
    ("VLVWLRLRVGLR", 0.381),
    ("VFCCHSSRFVFA", 0.686),
    ("LVGLESCGERAG", 0.731),
    ("LVLLRLSSLTIF", 0.707),
    ("SWCLLVWIGGVF", 0.451),
    ("GGGWGGRWGRLC", 0.755),
    ("TRSLLFANRCIV", 0.737),
    ("RGSRLVPRLLRP", 0.713),
    ("GLSLLLLWFKVC", 0.463),
    ("FGFFDIKLPVVA", 0.554),
    ("RVEPYDLARRVL", 0.759),
    ("LLLPVFLVFSVS", 0.482),
    ("CVVLCLFCWCML", 0.451),
    ("PCNVLWYSLFLF", 0.597),
    ("IVTSFVSPVYIC", 0.634),
    ("RYVVVGACIQVV", 0.48),
    ("MAMMQTILIIIH", 0.186),
    ("GCVLVFFLRLDL", 0.557),
    ("VFCFCRFHFFCA", 0.631),
    ("ISVRKTFLIVLC", 0.486),
]

---

Reported protein stability index is given for each of the following sequences.
System: Saccharomyces cerevisiae
ASSAY PROTOCOL: protein stability index of tFT-peptide fusion (C-terminal peptide) (PSI (0-1 scale)); higher = more stable (slower turnover)
MEASUREMENT CONDITIONS: genetic background: wild type; temperature: 30 C

# ITEM SEQUENCE, protein stability index
records = [
    ("WLISLLVQPVFL", 0.273),
    ("GCLVVVGFFSVF", 0.241),
    ("PGSIGVVIAVRS", 0.363),
    ("FLAFLEPRVCCA", 0.228),
    ("TNHRVRHWILRV", 0.301),
    ("WFYLLFVLFGLV", 0.417),
    ("VCLLVSVCLLWL", 0.192),
    ("CSAVYNLHLLYS", 0.48),
    ("FFFFSFFLATFS", 0.26),
    ("FFGVFIFPVSCR", 0.209),
    ("FLCWLSFIPLLS", 0.256),
    ("SVQICGFWLILG", 0.333),
    ("VFFFVSFFAFSS", 0.179),
    ("LSSIIRFLIFCL", 0.366),
    ("KYCPCIPLLIAL", 0.329),
    ("ERWSPWIVVFTN", 0.185),
    ("FFFCFFIFCFSL", 0.324),
    ("SPCSNFLECLSF", 0.641),
    ("FCVCLAVTCCGG", 0.26),
]

---

System: Saccharomyces cerevisiae
ASSAY PROTOCOL: protein stability index of tFT-peptide fusion (C-terminal peptide) (PSI (0-1 scale)); higher = more stable (slower turnover)
MEASUREMENT CONDITIONS: genetic background: wild type; temperature: 30 C
Readings of protein stability index for the listed sequences

# ITEM SEQUENCE, protein stability index
records = [
    ("HPTSAEELVTMR [GLR1 C-terminal 12 aa]", 0.693),
    ("ELTFDVKLVSMK [FPR4 C-terminal 12 aa]", 0.687),
    ("RSRKNEGSYLMH [HMT1 C-terminal 12 aa]", 0.693),
    ("RSVYDYNGSLKV [CSR1 C-terminal 12 aa]", 0.691),
    ("NAILNGGSVSGL [YAR066W C-terminal 12 aa]", 0.668),
    ("HERKRNKVLNTT [CMR3 C-terminal 12 aa]", 0.661),
]

---

Property: protein stability index; scope: individual sequences
Test system: Saccharomyces cerevisiae
ASSAY PROTOCOL: protein stability index of tFT-peptide fusion (C-terminal peptide) (PSI (0-1 scale)); higher = more stable (slower turnover)
MEASUREMENT CONDITIONS: genetic background: wild type; temperature: 30 C

# ITEM SEQUENCE, protein stability index
data = [
    ("NASWAFLCYFCV", 0.481),
    ("RVPNSYELRCFR", 0.544),
    ("GWFTMLTGAFAE", 0.725),
    ("SRFLTPLPLAMF", 0.592),
    ("PPPPPPPSLLLP", 0.828),
    ("MPVWGGSASRAL", 0.713),
    ("CLLLPPLATFPR", 0.695),
    ("DVCGVRYVLFVL", 0.502),
    ("PPLPPSPPFPPP", 0.653),
    ("DMGGLKACRGVG", 0.569),
    ("SPLPRSLPPLPP", 0.654),
    ("SRFQFCCCLFFF", 0.578),
    ("FTGACRCLDGPR", 0.669),
    ("TCRLIQLTVTLH", 0.386),
    ("VTWNFIVYVCCF", 0.283),
    ("GRVKEKCKRRYR", 0.657),
    ("DCSCIYGHRVVV", 0.647),
    ("PRHERPPRDNGH", 0.709),
    ("PHPPHPPPPPPS", 0.689),
]

---

Tested on: Saccharomyces cerevisiae
ASSAY PROTOCOL: protein stability index of tFT-peptide fusion (C-terminal peptide) (PSI (0-1 scale)); higher = more stable (slower turnover)
MEASUREMENT CONDITIONS: genetic background: wild type; temperature: 30 C
Entries and their protein stability index

# ITEM SEQUENCE, protein stability index
data = [
    ("VLESFLAPMVNQ [BET5 C-terminal 12 aa]", 0.71),
    ("TPDVLAAGPQFE [PCK1 C-terminal 12 aa]", 0.679),
    ("TASEIQRTKSSI [YGR035C C-terminal 12 aa]", 0.683),
    ("KNVTINTRETPL [DAL81 C-terminal 12 aa]", 0.671),
    ("KLSNWLFGWNDL [ASM4 C-terminal 12 aa]", 0.746),
    ("RRDVQSRSSMAC [HFL1 C-terminal 12 aa]", 0.652),
    ("LDYALVEMDKLF [UTP13 C-terminal 12 aa]", 0.708),
    ("FSTIDGSIKDIK [FDO1 C-terminal 12 aa]", 0.687),
    ("ELPAQKSTVISE [GEP7 C-terminal 12 aa]", 0.702),
    ("GCGCNCPEMFDA [MTC5 C-terminal 12 aa]", 0.695),
    ("KRSLRRNARKGL [ESC8 C-terminal 12 aa]", 0.687),
    ("VTTTFDKVHQDW [LEU1 C-terminal 12 aa]", 0.714),
    ("RLIGELGKLTED [YNL115C C-terminal 12 aa]", 0.701),
    ("FLNIENPENQSE [RCO1 C-terminal 12 aa]", 0.674),
    ("RSASNRHVDYFL [PPG1 C-terminal 12 aa]", 0.698),
    ("AKNARPSKKRKF [DBP10 C-terminal 12 aa]", 0.678),
    ("NSFELNDFFITS [HAC1 C-terminal 12 aa]", 0.74),
    ("LNFFAEETLDFE [EAT1 C-terminal 12 aa]", 0.689),
    ("IVHKSNFINNKK [OXA1 C-terminal 12 aa]", 0.694),
    ("KQGKKKKDCVIM [SKT5 C-terminal 12 aa]", 0.696),
    ("AQQNYRLWLSSV [ATG41 C-terminal 12 aa]", 0.326),
    ("RDVTDWWESREI [CCZ1 C-terminal 12 aa]", 0.765),
    ("AKDAFTSTLPTH [GFD2 C-terminal 12 aa]", 0.716),
    ("LSATIFLRGFLL [YIM2 C-terminal 12 aa]", 0.649),
    ("RFIRTANKKDYL [IMP4 C-terminal 12 aa]", 0.733),
]
